# system: THRα (Homo sapiens (Human))
# Sequence (P10827 other isoform, or with tags, fused parts or gaps isoform P10827-2): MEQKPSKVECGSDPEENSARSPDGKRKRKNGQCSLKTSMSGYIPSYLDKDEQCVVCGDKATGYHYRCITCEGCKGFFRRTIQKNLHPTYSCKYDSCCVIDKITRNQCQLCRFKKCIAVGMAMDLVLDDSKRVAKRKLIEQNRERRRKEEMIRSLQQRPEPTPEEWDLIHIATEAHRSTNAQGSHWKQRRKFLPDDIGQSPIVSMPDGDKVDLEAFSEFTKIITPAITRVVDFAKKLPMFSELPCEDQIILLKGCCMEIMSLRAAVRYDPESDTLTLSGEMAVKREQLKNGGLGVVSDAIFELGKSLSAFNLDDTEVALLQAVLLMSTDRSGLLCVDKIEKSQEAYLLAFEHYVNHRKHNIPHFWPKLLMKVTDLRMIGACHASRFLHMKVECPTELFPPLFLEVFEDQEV
# protocol notes: GeneBLAzer TR alpha-UAS-bla HEK 293T cell-based agonist assay
# recorded conditions: TR alpha-UAS-bla HEK 293T cells, 22 hours incubation
Would you mind telling me the reported EC50 of each entry?
Numbers only, in nM.

entry smiles | system | result unit | EC50
Cc1cc(NC(=O)c2noc(=O)[nH]2)cc(C)c1Cc1ccc(O)c(Cc2ccccc2)c1 | THRα (Homo sapiens (Human)) | nM | 1000
Cc1cc(NC(=O)c2noc(=O)[nH]2)cc(C)c1Cc1cc(F)c(O)c2c1CCCC2 | THRα (Homo sapiens (Human)) | nM | 435
Cc1cc(NC(=O)c2noc(=O)[nH]2)cc(C)c1Cc1cc(I)c(O)c2c1CCCC2 | THRα (Homo sapiens (Human)) | nM | 155

# ---- query molecule ----
Request: # get_value(readout='EC50', item= `Cc1cc(NC(=O)c2noc(=O)[nH]2)cc(C)c1Cc1ccc(O)c2c1CCCC2` )
Response: 122

###

# system: THRβ (Homo sapiens)
# Sequence (P10828 whole entry, looked up): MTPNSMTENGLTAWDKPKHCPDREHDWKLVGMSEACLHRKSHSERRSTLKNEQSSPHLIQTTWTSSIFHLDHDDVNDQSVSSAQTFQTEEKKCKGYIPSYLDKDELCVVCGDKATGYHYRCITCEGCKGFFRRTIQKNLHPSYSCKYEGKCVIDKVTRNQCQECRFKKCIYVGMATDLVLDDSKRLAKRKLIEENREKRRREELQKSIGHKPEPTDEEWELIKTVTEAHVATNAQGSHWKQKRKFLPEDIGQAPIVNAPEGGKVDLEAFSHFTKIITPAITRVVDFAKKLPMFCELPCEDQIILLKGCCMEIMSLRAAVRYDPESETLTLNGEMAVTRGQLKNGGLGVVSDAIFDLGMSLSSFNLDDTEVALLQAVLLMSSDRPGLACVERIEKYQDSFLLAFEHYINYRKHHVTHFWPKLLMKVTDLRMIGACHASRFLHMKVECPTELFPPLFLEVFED
# protocol notes: GeneBLAzer TR beta-UAS-bla HEK 293T cell-based agonist assay
value kind: EC50 (nM)
Give bare numbers, in nM.

Reference set (3 entries):
compound | EC50, nM
Cc1cc(NC(=O)c2noc(=O)[nH]2)cc(C)c1Cc1ccc(O)c2c1CCCC2 [WX001] | 39.4
Cc1cc(NC(=O)c2noc(=O)[nH]2)cc(C)c1Cc1cc(F)c(O)c2c1CCCC2 [WX006] | 105
Cc1cc(NC(=O)c2noc(=O)[nH]2)cc(C)c1Cc1ccc(O)c(Cc2ccccc2)c1 [WX002] | 85.5

Request: Look at this compound and give its reported EC50. Cc1cc(NC(=O)c2noc(=O)[nH]2)cc(C)c1Cc1cc(I)c(O)c2c1CCCC2 [WX005]
Response: 57.8

###

# protocol notes: Pharmacokinetic study of oral and intravenous administration in rats
# Assay type: in vivo, rat
# recorded conditions: rat, plasma, 30 mg/kg; male SD rats, oral, 30 mpk; read-out: Half-life T1/2 (converted)
value kind: half-life
Report field: quantity (unit follows the number).

Request: Given the entry Cc1cc(NC(=O)c2noc(=O)[nH]2)cc(C)c1Cc1ccc(O)c2c1CCCC2 [WX001] , report its measured half-life.
Response: 1.6 h

###

# system: CYP2D6 (Homo sapiens (Human), UniProt P10635)
# Sequence (P10635 whole entry): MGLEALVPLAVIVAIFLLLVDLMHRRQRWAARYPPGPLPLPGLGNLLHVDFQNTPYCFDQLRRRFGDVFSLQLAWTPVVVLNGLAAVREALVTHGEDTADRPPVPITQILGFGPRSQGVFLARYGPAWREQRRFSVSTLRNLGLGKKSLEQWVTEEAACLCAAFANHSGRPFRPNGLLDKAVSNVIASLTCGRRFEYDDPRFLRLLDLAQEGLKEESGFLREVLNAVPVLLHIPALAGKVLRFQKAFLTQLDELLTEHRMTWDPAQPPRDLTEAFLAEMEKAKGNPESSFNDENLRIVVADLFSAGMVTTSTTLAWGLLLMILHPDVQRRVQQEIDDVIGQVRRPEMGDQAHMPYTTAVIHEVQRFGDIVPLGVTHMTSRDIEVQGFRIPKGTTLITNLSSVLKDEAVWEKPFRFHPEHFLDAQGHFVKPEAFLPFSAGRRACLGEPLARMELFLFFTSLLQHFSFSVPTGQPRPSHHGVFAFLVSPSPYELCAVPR
# protocol notes: Inhibition of human liver microsomal cytochrome P450 isoenzyme CYP2D6
# Type: in vitro ADME
# recorded conditions: human liver microsomes
value kind: IC50 (µM)
Numbers only, in µM.

Request: Given `Cc1cc(NC(=O)c2noc(=O)[nH]2)cc(C)c1Cc1ccc(O)c2c1CCCC2` , state its recorded IC50.
Response: 41.6

###

# system: UniProt:P10828
# protocol notes: GeneBLAzer TR beta-UAS-bla HEK 293T cell-based agonist assay
# recorded conditions: TR beta-UAS-bla HEK 293T cells; T3 as positive control
value kind: THRß maximum agnostic capability (%)
Give bare numbers, in %.

entry smiles | system | quantitative result
Cc1cc(NC(=O)c2noc(=O)[nH]2)cc(C)c1Cc1ccc(O)c2c1CCCC2 | UniProt:P10828 | 103
Cc1cc(NC(=O)c2noc(=O)[nH]2)cc(C)c1Cc1cc(I)c(O)c2c1CCCC2 | UniProt:P10828 | 96
Cc1cc(NC(=O)c2noc(=O)[nH]2)cc(C)c1Cc1cc(F)c(O)c2c1CCCC2 | UniProt:P10828 | 90

Request: Which value of THRß maximum agnostic capability has been reported for `Cc1cc(NC(=O)c2noc(=O)[nH]2)cc(C)c1Cc1ccc(O)c(Cc2ccccc2)c1` in the records?
Response: 99
